This listing pairs compounds with measured Neurobehavioral score (0 to 4 points).
Test system: rats with permanent cerebral ischemia
Assay: Neurobehavioral scoring in rats with permanent cerebral ischemia (MCAO thread plug)
Assay type: in vivo, SD rats
Conditions: 20 mg/kg by gavage, 2 d after ischemia
Keep the answer to the number alone.

compound: O=c1cc(-c2ccc(N3CCCCC3)cc2)oc2c(O)c(O)ccc12
Neurobehavioral score (0 to 4 points): 1.88

compound: CN(C)C1CCN(c2ccc(-c3cc(=O)c4ccc(O)c(O)c4o3)cc2)CC1
Neurobehavioral score (0 to 4 points): 1.91

compound: COc1ccc2c(=O)cc(-c3ccc(N4CCCCC4)cc3)oc2c1OC
Neurobehavioral score (0 to 4 points): 2.20

Request the reported Neurobehavioral score (0 to 4 points) associated with CC1CC(C)CN(c2ccc(-c3cc(=O)c4ccc(O)c(O)c4o3)cc2)C1 (centres unmarked)
1.75

Same read-out for CC1(C)CCN(c2ccc(-c3cc(=O)c4ccc(O)c(O)c4o3)cc2)CC1 ?
1.85

* * *

System: N171-82Q HD mice
Test: In vivo MRI scan and brain volume measurement, HD mice
Set-up: species or system mouse
Settings: 5 mg/kg/d, administered until 24 weeks, n = 4
Marks after values point to notes of the source that are not given here.
observed_property: MRI volume, Whole brain

compound: CC1(C)CCN(c2ccc(-c3cc(=O)c4ccc(O)c(O)c4o3)cc2)CC1 [Example 4]
result: 461.31 ± 3.451** mm^3
//
compound: CN(C)C1CCN(c2ccc(-c3cc(=O)c4ccc(O)c(O)c4o3)cc2)CC1 [Example 3]
result: 465.33 ± 9.218** mm^3
//
compound: CC1CC(C)CN(c2ccc(-c3cc(=O)c4ccc(O)c(O)c4o3)cc2)C1 (centres unmarked) [Example 5]
result: 462.19 ± 2.178** mm^3
//
compound: COc1ccc2c(=O)cc(-c3ccc(N4CCCCC4)cc3)oc2c1OC [Example 2]
result: 449.97 ± 7.279** mm^3

Request the reported MRI volume, Whole brain associated with O=c1cc(-c2ccc(N3CCCCC3)cc2)oc2c(O)c(O)ccc12 [Example 1]
460.47 ± 2.145** mm^3

* * *

Test system: AKT signaling pathway
Assay: Western blotting of p-AKT and t-AKT in primary cortical neuron cells
Assay type: cell-based, mouse
Conditions: 500 nM, 10 min at 37° C., Vehicle = 100, n = 3
observed_property: Relative intensity of p-AKT/t-AKT protein
Keep the answer to the number alone.

A selection of reference data follows.
molecule: [2H]c1c(-c2ccc(N3CCCCC3)cc2)oc2c(O)c(O)ccc2c1=O [Example 7]
numeric_result: 220.514
//
molecule: COc1ccc2c(=O)cc(-c3ccc(N4CCCCC4)cc3)oc2c1OC [Example 2]
numeric_result: 209.651
//
molecule: CC1(C)CCN(c2ccc(-c3cc(=O)c4ccc(O)c(O)c4o3)cc2)CC1 [Example 4]
numeric_result: 215.698
//
molecule: O=c1cc(-c2ccc(N3CCOCC3)cc2)oc2c(O)c(O)ccc12 [Control compound, reference compound]
numeric_result: 147.748
//
molecule: CC1CC(C)CN(c2ccc(-c3cc(=O)c4ccc(O)c(O)c4o3)cc2)C1 (stereo not shown) [Example 5]
numeric_result: 219.904

Field: Relative intensity of p-AKT/t-AKT protein (AKT signaling pathway). Entry: O=c1cc(-c2ccc(N3CCCCC3)cc2)oc2c(O)c(O)ccc12 [Example 1]
219.663

Same read-out for CN(C)C1CCN(c2ccc(-c3cc(=O)c4ccc(O)c(O)c4o3)cc2)CC1 [Example 3] ?
240.213

* * *

Tested on: N171-82Q HD mice
Experiment: Rotarod experiment, HD mice
Assay type: in vivo, mouse
Details: 5 mg/kg/d intragastric, 12 w
Description: 7-week-old N171-82Q HD male mice were paired with female B6C3F1/J hybrid mice to obtain newborn mice. From 21 days of age, male mice were housed in separate cages. […] The weights of the mice were measured every week. […] At the end of the study, the effect of the test compound on the mortality of mice was evaluated. The software Sigmaplot 13.0 was used for statistical analysis of the data, and the data of each group was expressed as mean standard error (x±SEM). […]
This listing pairs compounds with measured Time to drop (drop latent period), rotarod.
Please respond with the number in s and leave the unit unwritten.

compound: COc1ccc2c(=O)cc(-c3ccc(N4CCCCC4)cc3)oc2c1OC
units: s
numeric_result: 98.89

Request the reported Time to drop (drop latent period), rotarod associated with O=c1cc(-c2ccc(N3CCCCC3)cc2)oc2c(O)c(O)ccc12
95.90

* * *

Target: TrkB receptor (Mus musculus)
Construct: The culture continued until the primary cortical neuron cells mature; endogenous in cells; host or cells: primary cortical neurons from E18 mouse embryos (N171-82Q WT male x B6C3F1/J female)
Sequence (P15209 32-821): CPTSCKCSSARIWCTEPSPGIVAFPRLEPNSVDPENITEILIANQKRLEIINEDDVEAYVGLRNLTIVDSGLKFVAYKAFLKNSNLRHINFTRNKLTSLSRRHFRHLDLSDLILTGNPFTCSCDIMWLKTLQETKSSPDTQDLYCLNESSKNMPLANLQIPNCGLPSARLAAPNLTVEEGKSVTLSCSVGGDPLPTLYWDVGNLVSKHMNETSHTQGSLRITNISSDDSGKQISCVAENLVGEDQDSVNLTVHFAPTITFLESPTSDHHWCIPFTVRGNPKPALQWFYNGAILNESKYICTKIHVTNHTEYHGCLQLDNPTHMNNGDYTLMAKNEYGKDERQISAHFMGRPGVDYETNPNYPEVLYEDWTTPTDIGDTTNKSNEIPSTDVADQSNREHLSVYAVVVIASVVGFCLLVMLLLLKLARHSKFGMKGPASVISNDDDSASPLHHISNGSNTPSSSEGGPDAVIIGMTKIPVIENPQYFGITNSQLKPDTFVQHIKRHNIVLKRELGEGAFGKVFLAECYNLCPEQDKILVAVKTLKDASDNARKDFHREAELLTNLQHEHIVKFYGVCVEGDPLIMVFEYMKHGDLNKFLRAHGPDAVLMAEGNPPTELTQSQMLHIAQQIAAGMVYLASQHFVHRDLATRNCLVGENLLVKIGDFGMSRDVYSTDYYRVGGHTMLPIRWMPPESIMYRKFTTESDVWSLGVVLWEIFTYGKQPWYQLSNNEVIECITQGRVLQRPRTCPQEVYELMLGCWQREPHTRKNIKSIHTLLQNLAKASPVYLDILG
Assay: Western blotting of p-TrkB and t-TrkB in primary cortical neuron cells
Assay type: cell-based
Conditions: 500 nM, 10 min at 37° C., Vehicle = 100, n = 3
This listing pairs compounds with measured Relative intensity of p-TrkB/t-TrkB protein.
Keep the answer to the number alone.

A selection of reference data follows.
compound: CC1CC(C)CN(c2ccc(-c3cc(=O)c4ccc(O)c(O)c4o3)cc2)C1 (stereo not shown)
numeric_result: 213.254

compound: O=c1cc(-c2ccc(N3CCCCC3)cc2)oc2c(O)c(O)ccc12
numeric_result: 216.727

compound: CN(C)C1CCN(c2ccc(-c3cc(=O)c4ccc(O)c(O)c4o3)cc2)CC1
numeric_result: 234.685

compound: COc1ccc2c(=O)cc(-c3ccc(N4CCCCC4)cc3)oc2c1OC
numeric_result: 206.453

Request the reported Relative intensity of p-TrkB/t-TrkB protein associated with [2H]c1c(-c2ccc(N3CCCCC3)cc2)oc2c(O)c(O)ccc2c1=O
218.156

Same read-out for O=c1cc(-c2ccc(N3CCOCC3)cc2)oc2c(O)c(O)ccc12 [Control compound, reference compound] ?
138.890

Same read-out for CC1(C)CCN(c2ccc(-c3cc(=O)c4ccc(O)c(O)c4o3)cc2)CC1 ?
216.198

* * *

This listing pairs compounds with measured Time for crossing the beams, high-altitude balance beam (11 mm).
Tested on: N171-82Q HD mice
Assay: High-altitude balance beam (11 mm) experiment 1, HD mice
Format: in vivo, mouse
Settings: 5 mg/kg/d intragastric, 18 w
Please respond with the number in s and leave the unit unwritten.

A selection of reference data follows.
compound: COc1ccc2c(=O)cc(-c3ccc(N4CCCCC4)cc3)oc2c1OC
numeric_result: 8.59
--
compound: O=c1cc(-c2ccc(N3CCCCC3)cc2)oc2c(O)c(O)ccc12
numeric_result: 7.55
--
compound: CC1CC(C)CN(c2ccc(-c3cc(=O)c4ccc(O)c(O)c4o3)cc2)C1 (centres unmarked)
numeric_result: 8.61

Request the reported Time for crossing the beams, high-altitude balance beam (11 mm) associated with CN(C)C1CCN(c2ccc(-c3cc(=O)c4ccc(O)c(O)c4o3)cc2)CC1
8.15

Same read-out for CC1(C)CCN(c2ccc(-c3cc(=O)c4ccc(O)c(O)c4o3)cc2)CC1 ?
8.99

* * *

This listing pairs compounds with measured Neurobehavioral score (0 to 4 points).
Tested on: rats with permanent cerebral ischemia
Experiment: Neurobehavioral scoring in rats with permanent cerebral ischemia (MCAO thread plug)
Assay type: in vivo, SD rats
Details: 20 mg/kg by gavage, 4 d after ischemia
Keep the answer to the number alone.

A selection of reference data follows.
compound: CC1(C)CCN(c2ccc(-c3cc(=O)c4ccc(O)c(O)c4o3)cc2)CC1
Neurobehavioral score (0 to 4 points): 1.54

compound: O=c1cc(-c2ccc(N3CCCCC3)cc2)oc2c(O)c(O)ccc12
Neurobehavioral score (0 to 4 points): 1.88

compound: COc1ccc2c(=O)cc(-c3ccc(N4CCCCC4)cc3)oc2c1OC
Neurobehavioral score (0 to 4 points): 1.87

compound: CC1CC(C)CN(c2ccc(-c3cc(=O)c4ccc(O)c(O)c4o3)cc2)C1 (centres unmarked)
Neurobehavioral score (0 to 4 points): 1.85

With those in mind, consider the next compound.
Request the reported Neurobehavioral score (0 to 4 points) associated with CN(C)C1CCN(c2ccc(-c3cc(=O)c4ccc(O)c(O)c4o3)cc2)CC1
1.74

* * *

Test system: rats with permanent cerebral ischemia
Test: Neurobehavioral scoring in rats with permanent cerebral ischemia (MCAO thread plug)
Assay type: in vivo, SD rats
Settings: 20 mg/kg by gavage, 6 d after ischemia
observed_property: Neurobehavioral score (0 to 4 points)
Keep the answer to the number alone.

A selection of reference data follows.
compound: COc1ccc2c(=O)cc(-c3ccc(N4CCCCC4)cc3)oc2c1OC
measured_on: rats with permanent cerebral ischemia
Neurobehavioral score (0 to 4 points): 1.79

compound: CC1CC(C)CN(c2ccc(-c3cc(=O)c4ccc(O)c(O)c4o3)cc2)C1 (centres unmarked)
measured_on: rats with permanent cerebral ischemia
Neurobehavioral score (0 to 4 points): 1.72

compound: O=c1cc(-c2ccc(N3CCCCC3)cc2)oc2c(O)c(O)ccc12
measured_on: rats with permanent cerebral ischemia
Neurobehavioral score (0 to 4 points): 1.86

compound: CC1(C)CCN(c2ccc(-c3cc(=O)c4ccc(O)c(O)c4o3)cc2)CC1
measured_on: rats with permanent cerebral ischemia
Neurobehavioral score (0 to 4 points): 1.68

Request the reported Neurobehavioral score (0 to 4 points) associated with CN(C)C1CCN(c2ccc(-c3cc(=O)c4ccc(O)c(O)c4o3)cc2)CC1
1.78

Each recorded value in this set is attributed to patent US20200390755A1.
